Biological target: T1, BCDX2 complex (human, UniProt O15315;O43502;O75771;O43543 1-384;1-376;1-328;1-280)
T1 sequence 1: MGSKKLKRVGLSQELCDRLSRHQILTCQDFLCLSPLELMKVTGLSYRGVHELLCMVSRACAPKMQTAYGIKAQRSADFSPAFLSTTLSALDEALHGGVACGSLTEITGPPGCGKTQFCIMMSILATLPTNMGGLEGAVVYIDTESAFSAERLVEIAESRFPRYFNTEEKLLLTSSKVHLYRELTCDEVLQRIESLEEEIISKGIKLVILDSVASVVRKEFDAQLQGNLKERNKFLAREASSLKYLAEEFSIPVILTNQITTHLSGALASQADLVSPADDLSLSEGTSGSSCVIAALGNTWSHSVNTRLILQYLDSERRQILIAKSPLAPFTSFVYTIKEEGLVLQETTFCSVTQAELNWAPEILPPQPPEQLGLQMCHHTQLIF
T1 sequence 2: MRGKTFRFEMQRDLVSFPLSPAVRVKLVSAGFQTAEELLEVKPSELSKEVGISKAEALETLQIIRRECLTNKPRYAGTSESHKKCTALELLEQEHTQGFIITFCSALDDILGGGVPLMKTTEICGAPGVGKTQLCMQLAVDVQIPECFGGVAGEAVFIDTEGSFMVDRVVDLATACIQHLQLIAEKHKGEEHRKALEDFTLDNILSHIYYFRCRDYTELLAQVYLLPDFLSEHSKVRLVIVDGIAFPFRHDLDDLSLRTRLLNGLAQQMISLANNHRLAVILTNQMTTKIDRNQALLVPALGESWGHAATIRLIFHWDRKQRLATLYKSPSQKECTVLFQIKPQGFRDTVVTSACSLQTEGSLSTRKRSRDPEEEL
T1 sequence 3: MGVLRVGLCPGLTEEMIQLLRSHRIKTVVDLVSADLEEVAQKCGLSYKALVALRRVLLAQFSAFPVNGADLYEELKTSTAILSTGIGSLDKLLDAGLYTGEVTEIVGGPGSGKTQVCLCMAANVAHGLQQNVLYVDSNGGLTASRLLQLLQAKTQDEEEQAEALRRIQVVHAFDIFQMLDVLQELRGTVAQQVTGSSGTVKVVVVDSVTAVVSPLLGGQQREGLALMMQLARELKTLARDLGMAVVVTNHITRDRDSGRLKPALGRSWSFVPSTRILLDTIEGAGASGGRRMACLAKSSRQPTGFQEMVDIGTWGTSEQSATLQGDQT
T1 sequence 4: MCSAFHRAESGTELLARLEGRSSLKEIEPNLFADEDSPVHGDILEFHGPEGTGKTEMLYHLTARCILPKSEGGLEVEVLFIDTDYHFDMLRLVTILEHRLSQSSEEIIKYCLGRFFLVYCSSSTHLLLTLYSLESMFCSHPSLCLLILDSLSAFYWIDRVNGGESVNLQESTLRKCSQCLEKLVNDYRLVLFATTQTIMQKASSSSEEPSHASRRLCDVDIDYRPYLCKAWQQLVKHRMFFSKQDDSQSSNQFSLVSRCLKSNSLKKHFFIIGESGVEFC
Assay: stopped-flow fluorescence (amplitude, A1); Kd,1 initial complex; ATP, Mg2+; EMSA: 20 mM Tris-HCl pH 7.5, 2 mM MgCl2, 2 mM ATP, 37 C, 20 nM DNA, glutaraldehyde fixation; stopped-flow: 25 mM Tris-HCl pH 7.5, 5 mM MgCl2, 50 mM KCl, 2 mM ATP, 0.5 mM EDTA, 10% glycerol, 37 C; BLI: 50 mM Tris-HCl pH 7.5, 2 mM ATP, 50 mM KCl, 5 mM MgCl2, 0.05% Tween 20, room temperature
Conditions: protein: recombinant; tags: Strep-tag and His-tag (XRCC2 N-terminal His); copies: 1;1;1;1; label: Cy3 at 3' or 5'
assay_readout: Kd (nM)
Value expressed in nM; do not type the unit.

// recorded Kd for TTTTTTTTTTTTTTTTTTTTTTTTTTTTTTTTTTTTTTTTTTT (ssDNA) [Cy3-dT43] : 310
